# targetDesc: Retinal dehydrogenase 2 (Homo sapiens)
# Sequence (whole entry): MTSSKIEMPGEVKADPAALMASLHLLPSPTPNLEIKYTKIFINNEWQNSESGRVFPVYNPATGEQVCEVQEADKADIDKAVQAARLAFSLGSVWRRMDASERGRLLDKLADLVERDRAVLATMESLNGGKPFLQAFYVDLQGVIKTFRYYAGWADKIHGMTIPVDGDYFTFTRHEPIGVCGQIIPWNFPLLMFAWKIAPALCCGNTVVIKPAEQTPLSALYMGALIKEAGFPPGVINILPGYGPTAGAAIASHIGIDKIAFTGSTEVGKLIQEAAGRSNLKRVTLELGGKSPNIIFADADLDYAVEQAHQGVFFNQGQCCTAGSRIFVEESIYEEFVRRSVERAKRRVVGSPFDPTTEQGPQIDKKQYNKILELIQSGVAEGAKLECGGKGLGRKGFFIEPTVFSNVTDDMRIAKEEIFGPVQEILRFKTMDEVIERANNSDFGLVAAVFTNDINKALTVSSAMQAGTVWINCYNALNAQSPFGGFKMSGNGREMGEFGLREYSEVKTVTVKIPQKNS
# experiment: Inhibition of human recombinant ALDH1A2 assessed as remaining enzyme activity at 25 uM pre-incubated for 5 mins before acetaldehyde addition by continuous spectrometric assay relative to control
Listing: Activity of selected compounds

Guide cases for Activity, answers given:
Query: Which value of Activity has been reported for `Cc1ccc(-c2cn3cccc(-c4ccc(F)cc4)c3n2)cc1` in the records?
Reply: 50 to 75%

Query: For the compound `c1ccc(-c2ccc(-c3cccn4cc(-c5ccccc5)nc34)cc2)cc1` , what Activity is on record?
Reply: 75 to 100%

Query: Value lookup for Activity; key = `COc1ccc(-c2cn3cccc(-c4ccc(-c5ccccc5)cc4)c3n2)cc1`
Reply: 75 to 100%

---
Query: Quick check: Activity of `COC(=O)c1ccc(-c2cccn3cc(-c4ccccc4)nc23)cc1` ?
Reply: 25 to 50%
